- ASSAY_REMARKS: self-splicing fitness, log relative to wild type (ln ratio); higher = more splicing; Tetrahymena group I intron in knt gene, E. coli kanamycin selection, DiMSum; sequences stand for … in CUCUCU…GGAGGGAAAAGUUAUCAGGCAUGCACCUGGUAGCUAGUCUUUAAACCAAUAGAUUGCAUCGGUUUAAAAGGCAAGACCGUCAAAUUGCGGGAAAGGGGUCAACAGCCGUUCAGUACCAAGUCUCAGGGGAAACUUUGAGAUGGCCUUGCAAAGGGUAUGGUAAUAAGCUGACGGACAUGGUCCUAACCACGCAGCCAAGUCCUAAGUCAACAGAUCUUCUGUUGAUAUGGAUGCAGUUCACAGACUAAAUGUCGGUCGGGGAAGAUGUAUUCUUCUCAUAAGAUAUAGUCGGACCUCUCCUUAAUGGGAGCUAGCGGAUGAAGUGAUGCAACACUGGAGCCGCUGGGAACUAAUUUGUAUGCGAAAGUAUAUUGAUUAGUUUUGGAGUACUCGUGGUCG;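 also: selection with 25 µg/mL kanamycin versus none on LB agar overnight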
- CONDITION_DESCRIPTION: 30 °C
Decision: self-splicing fitness (ln) compared against -3; not below it gives fulfilled, below it gives not fulfilled.

### Prompt Could you verify whether the entry UGGAAGCAAUAUUACGAAAG shows self-splicing fitness (ln) of no less than -3?
### Response fulfilled

### Prompt // same read-out, input: CCCGAGCAAUAUUACGUACU
### Response not fulfilled

### Prompt // same read-out, input: CUUUAGCAAUAUUACGGUUA
### Response not fulfilled

### Prompt // same read-out, input: UGCAAGCAAUAUUACGGUCC
### Response fulfilled

### Prompt // same read-out, input: AGGUAGCAAUAUUACGUACA
### Response fulfilled

### Prompt // same read-out, input: GCUGAGCAAUAUUACGACUA
### Response fulfilled

### Prompt // same read-out, input: UGGCAGCAAUAUUACGUUAA
### Response fulfilled

### Prompt // same read-out, input: CGUUAGCAAUAUUACGCUAG
### Response fulfilled

### Prompt // same read-out, input: GGGAAGCAAUAUUACGGGAC
### Response fulfilled

### Prompt // same read-out, input: UAUGAGCAAUAUUACGUAGG
### Response not fulfilled

### Prompt // same read-out, input: AAUCAGCAAUAUUACGUUGC
### Response not fulfilled

### Prompt // same read-out, input: AAAGAGCAAUAUUACGCCGG
### Response not fulfilled

### Prompt // same read-out, input: GUGUAGCAAUAUUACGCAUG
### Response fulfilled

### Prompt // same read-out, input: AGUAAGCAAUAUUACGGCCA
### Response fulfilled

### Prompt // same read-out, input: AUUUAGCAAUAUUACGCACG
### Response fulfilled

### Prompt // same read-out, input: AUCGAGCAAUAUUACGUAGC
### Response not fulfilled

----------
- ASSAY_REMARKS: self-splicing fitness, log relative to wild type (ln ratio); higher = more splicing; Tetrahymena group I intron in knt gene, E. coli kanamycin selection, DiMSum; sequences stand for … in CUCUCU…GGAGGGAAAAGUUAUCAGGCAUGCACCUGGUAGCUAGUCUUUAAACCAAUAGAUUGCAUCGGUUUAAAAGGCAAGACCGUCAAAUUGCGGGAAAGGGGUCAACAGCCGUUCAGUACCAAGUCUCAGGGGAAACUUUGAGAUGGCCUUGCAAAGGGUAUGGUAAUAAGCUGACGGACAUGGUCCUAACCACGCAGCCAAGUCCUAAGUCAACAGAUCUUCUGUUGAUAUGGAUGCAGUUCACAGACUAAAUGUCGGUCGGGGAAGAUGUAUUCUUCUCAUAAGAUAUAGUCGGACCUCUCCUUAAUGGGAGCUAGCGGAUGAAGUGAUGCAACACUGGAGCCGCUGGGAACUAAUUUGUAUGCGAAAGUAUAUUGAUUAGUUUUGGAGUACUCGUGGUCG
- CONDITION_DESCRIPTION: 30 °C
TEST_READOUT: self-splicing fitness (ln)
Reply briefly: the number, and no unit.

### Prompt Which self-splicing fitness (ln) is listed for GACUAGCAAUAUUACGGUCG ?
### Response -2.05

### Prompt // same read-out, input: GAUGAGCAAUAUUACGUUCG
### Response -2.05

### Prompt // same read-out, input: CAAAAGCAAUAUUACGAACA
### Response -1.95
